Reference source: ChEMBL document CHEMBL5046309

assay: Cmax in nude mouse at 10 mg/kg, po measured up to 24 hrs by LC-MS/MS analysis; assay type: ADME, organism-based; parameters: route oral, dose 10 mg/kg, time <=24; details: in vivo
ASSAY METRIC: Cmax (ng/mL)
Please respond with the number in ng/mL and leave the unit unwritten.

Task: What Cmax value was documented for this compound, `C[C@H]1Cn2cnc(C(=O)N[C@H](C)C(F)(F)F)c2CN1C(=O)Nc1ccc(F)c(C#N)c1` ?
Output: 4600

---

test: Efflux ratio of apparent permeability across basolateral to apical side over apical to basolateral side in […] by LC-MS/MS analysis; assay type: ADME, cell-based
ASSAY METRIC: efflux ratio
# print the numeric value only

Task: What value of measured efflux ratio is listed for `C[C@H]1Cn2cnc(C(=O)N[C@H](C)C(F)(F)F)c2CN1C(=O)Nc1ccc(F)c(C#N)c1` ?
Output: 4.73

---

test: Half life in nude mouse at 2 mg/kg, po measured up to 24 hrs by LC-MS/MS analysis; type: ADME, organism-based; details: in vivo
ASSAY METRIC: half-life (h)
// note: answer is a bare numeric in h

Task: Look up half-life: `C[C@H]1Cn2cnc(C(=O)N[C@H](C)C(F)(F)F)c2CN1C(=O)Nc1ccc(F)c(C#N)c1`
Output: 5.04

---

experiment: Plasma protein binding in mouse by LC-MS/MS analysis; type: ADME, cell-free; conditions: read-out: PPB (converted)
ASSAY METRIC: fraction unbound
Give only the figure.

Task: What value of fraction unbound has been recorded for this entry: `C[C@H]1Cn2cnc(C(=O)N[C@H](C)C(F)(F)F)c2CN1C(=O)Nc1ccc(F)c(C#N)c1`
Output: 0.12

---

assay: Solubility of the compound in FaSSIF using amorphous form of sample by LC-MS/MS analysis; format: physicochemical
ASSAY METRIC: solubility (µM)
Answer in µM, number only, no unit symbol.

Task: So what does the record say about solubility for `C[C@H]1Cn2cnc(C(=O)N[C@H](C)C(F)(F)F)c2CN1C(=O)Nc1ccc(F)c(C#N)c1` ?
Output: 1640

---

assay: Microsomal stability in mouse liver microsome assessed as half life measured up to 24 hrs by LC-MS/MS analysis; assay type: ADME; settings: liver microsomes
ASSAY METRIC: half-life

Task: Need half-life of `C[C@H]1Cn2cnc(C(=O)N[C@H](C)C(F)(F)F)c2CN1C(=O)Nc1ccc(F)c(C#N)c1` , thanks.
Output: > 2 h

---

assay: Plasma protein binding in dog by LC-MS/MS analysis; type: ADME, cell-free, Canis lupus familiaris; details: read-out: PPB (converted)
ASSAY METRIC: fraction unbound
Write the number on its own, no unit after it.

Task: Can you share its fraction unbound? I mean this compound: `C[C@H]1Cn2cnc(C(=O)N[C@H](C)C(F)(F)F)c2CN1C(=O)Nc1ccc(F)c(C#N)c1`
Output: 0.23

---

assay: Half life in Beagle dog at 0.5 mg/kg, po measured up to 24 hrs by LC-MS/MS analysis; type: ADME, organism-based, Canis lupus familiaris; settings: in vivo
ASSAY METRIC: half-life (h)
Note: unit h is implicit; provide only the numeric part.

Task: Param item = `C[C@H]1Cn2cnc(C(=O)N[C@H](C)C(F)(F)F)c2CN1C(=O)Nc1ccc(F)c(C#N)c1` ; retrieve measured half-life.
Output: 30.8
